# TESTED_ON: Glycogen phosphorylase, liver form (Homo sapiens, UniProt P06737)
# Sequence (P06737 whole entry): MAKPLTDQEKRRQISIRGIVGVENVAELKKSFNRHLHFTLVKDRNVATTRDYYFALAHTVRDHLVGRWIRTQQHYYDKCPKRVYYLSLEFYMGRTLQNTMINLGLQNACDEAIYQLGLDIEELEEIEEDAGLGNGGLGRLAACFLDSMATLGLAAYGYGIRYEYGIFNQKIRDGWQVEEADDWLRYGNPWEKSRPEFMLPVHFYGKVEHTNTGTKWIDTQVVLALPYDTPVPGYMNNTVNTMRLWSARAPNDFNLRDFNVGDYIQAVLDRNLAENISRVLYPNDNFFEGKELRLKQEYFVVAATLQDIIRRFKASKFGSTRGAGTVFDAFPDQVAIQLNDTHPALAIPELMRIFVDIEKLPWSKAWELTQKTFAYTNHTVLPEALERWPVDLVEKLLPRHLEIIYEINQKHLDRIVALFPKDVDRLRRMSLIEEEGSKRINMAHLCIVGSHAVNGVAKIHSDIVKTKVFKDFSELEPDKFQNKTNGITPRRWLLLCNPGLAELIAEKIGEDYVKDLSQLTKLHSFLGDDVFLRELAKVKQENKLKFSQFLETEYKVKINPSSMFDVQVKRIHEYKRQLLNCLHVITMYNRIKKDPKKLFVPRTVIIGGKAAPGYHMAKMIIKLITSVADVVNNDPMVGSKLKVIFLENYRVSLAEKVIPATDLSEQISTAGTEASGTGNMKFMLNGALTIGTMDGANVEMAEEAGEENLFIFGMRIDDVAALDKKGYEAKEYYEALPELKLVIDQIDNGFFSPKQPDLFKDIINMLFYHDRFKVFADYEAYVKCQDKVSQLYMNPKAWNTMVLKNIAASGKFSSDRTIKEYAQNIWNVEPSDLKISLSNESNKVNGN
# ASSAY_OVERVIEW: Inhibitory concentration against glycogen phosphorylase
pIC50: −log10 of the molar value.

COMPOUND: O=C(NCC(=O)N(CCO)C1CCS(=O)(=O)CC1)c1cc2cc(Cl)ccc2[nH]1
pIC50: 7.92
//
COMPOUND: O=C(NCC(=O)N(C(CO)CO)C1CCCC1)c1cc2cc(Cl)ccc2[nH]1
pIC50: 6.46
//
COMPOUND: N#CCCN(C(=O)CNC(=O)c1cc2cc(Cl)ccc2[nH]1)C1CCCC1
pIC50: 6.85
//
COMPOUND: CCCCN(C(=O)CNC(=O)c1cc2cc(Cl)ccc2[nH]1)C1CCCC1
pIC50: 7.09
//
COMPOUND: CN(C(=O)CNC(=O)c1cc2cc(Cl)ccc2[nH]1)C1CCS(=O)(=O)C1 (stereo not given)
pIC50: 6.39
